# Tested on: T-47D breast
# procedure_details: NCI tumour cell line growth inhibition, 48 h
# TGI values compiled below

O=C(CCc1ccc(O)cc1)c1c(O)cc(O)cc1OC1OC(CO)C(O)C(O)C1O (stereo not drawn) : > 100 µM
NCCCC(N)C(=O)O (stereo not drawn) : > 100 µM
O=C(O)CNC(=O)c1ccc([As](=O)(O)O)cc1 : > 100 µM
S=C1NCCN1C1=Nc2ccccc2CO1 : > 100 µM
CC(=O)OCC1OC(n2c(=S)[nH]c(-c3ccccc3)c(C#N)c2=O)C(OC(C)=O)C(OC(C)=O)C1OC(C)=O (stereo not drawn) : > 100 µM

In: Hello, I am looking for reported TGI with T-47D breast for O=C1/C(=C/c2ccc(Br)s2)NC(=S)N1CN1CCOCC1 . Could you help?
Out: > 100 µM

In: Hello, I am looking for reported TGI with T-47D breast for Cc1cccc(N(CCC#N)S(=O)(=O)c2ccccc2)c1 . Could you help?
Out: > 100 µM

In: Hello, I am looking for reported TGI with T-47D breast for CC1=C2c3ccccc3N(C(=O)/C=C/C(=O)O)[C@H]2[C@H]2C(=O)OC(=O)[C@H]2C1 . Could you help?
Out: > 10 µM

In: Hello, I am looking for reported TGI with T-47D breast for CN1CN(c2ccccc2)C2(CCN(CCCC3(c4cccs4)OCCO3)CC2)C1=O . Could you help?
Out: > 100 µM

In: Hello, I am looking for reported TGI with T-47D breast for O=C(O)/C=C/C(=O)Nc1ncn[nH]1 . Could you help?
Out: > 100 µM

In: Hello, I am looking for reported TGI with T-47D breast for O=c1nc2c(c(-c3cccc(Cl)c3)[nH]1)COC/C2=C\c1cccc(Cl)c1 . Could you help?
Out: > 100 µM

In: Hello, I am looking for reported TGI with T-47D breast for Cn1cc(C2=C(c3ccc(OC[C@@H](O)CO)cc3)C(=O)NC2=O)c2ccccc21 . Could you help?
Out: > 25 µM

In: Hello, I am looking for reported TGI with T-47D breast for CC(C)(CO)N1C(=O)c2ccccc2C1(O)c1ccc(Cl)cc1 (stereo not drawn) . Could you help?
Out: > 100 µM
